Attribution: ChEMBL document CHEMBL1137052

# METHOD_DESCRIPTION: Metabolic clearance in human liver microsomes
# Format: ADME, Microsome
# TEST_CONTEXT: read-out: Clearance

{"SUBSTANCE_SMILES": "NC(=O)N(O)CCC#Cc1ccc(OCCN2CCC(=C3c4ccc(Cl)cc4CCc4cccnc43)CC2)cc1", "microsomal CLint, µL/min/mg": 15}
{"SUBSTANCE_SMILES": "NC(=O)N(O)CCC#Cc1ccc(OCCCCN2CCN(C(c3ccc(F)cc3)c3ccc(F)cc3)CC2)cc1", "microsomal CLint, µL/min/mg": 13}
{"SUBSTANCE_SMILES": "NC(=O)N(O)CCC#Cc1ccc(OCCN2CCN([C@H](c3ccccc3)c3ccc(Cl)cc3)CC2)cc1", "microsomal CLint, µL/min/mg": 2}

* * *

# METHOD_DESCRIPTION: Bioavailability in rat (dose 2 mg/kg p.o./i.v.)
# Format: ADME, organism-based
# TEST_CONTEXT: in vivo, po

{"SUBSTANCE_SMILES": "NC(=O)N(O)CCC#Cc1ccc(OCCN2CCN([C@H](c3ccccc3)c3ccc(Cl)cc3)CC2)cc1", "bioavailability [%]": 23}
{"SUBSTANCE_SMILES": "NC(=O)N(O)CCC#Cc1ccc(OCCN2CCC(=C3c4ccc(Cl)cc4CCc4cccnc43)CC2)cc1", "bioavailability [%]": 8}

* * *

# METHOD_DESCRIPTION: Plasma concentration of compound in guinea pig after 3h of oral dose of 2 mg/kg
# Type: ADME, organism-based, Cavia porcellus
# Parameters: dose 2 mg/kg, route oral
# TEST_CONTEXT: read-out: Concentration, in vivo

{"SUBSTANCE_SMILES": "NC(=O)N(O)CCC#Cc1ccc(OCCN2CCC(=C3c4ccc(Cl)cc4CCc4cccnc43)CC2)cc1", "concentration (nM)": 129}
{"SUBSTANCE_SMILES": "NC(=O)N(O)CCC#Cc1ccc(OCCN2CCN([C@H](c3ccccc3)c3ccc(Cl)cc3)CC2)cc1", "concentration (nM)": 350}

* * *

# METHOD_DESCRIPTION: Metabolic clearance in rat liver microsomes
# Assay type: ADME, Microsome
# TEST_CONTEXT: read-out: Clearance
ENDPOINT: microsomal CLint

{"SUBSTANCE_SMILES": "NC(=O)N(O)CCC#Cc1ccc(OCCCN2CCN([C@H](c3ccccc3)c3ccc(Cl)cc3)CC2)cc1", "REPORTED_VALUE": "108 µL/min/mg"}
{"SUBSTANCE_SMILES": "NC(=O)N(O)CCC#Cc1ccc(OCCN2CCN([C@H](c3ccccc3)c3ccc(Cl)cc3)CC2)cc1", "REPORTED_VALUE": "48 µL/min/mg"}
{"SUBSTANCE_SMILES": "NC(=O)N(O)CCC#Cc1ccc(OCCN2CCC(=C3c4ccc(Cl)cc4CCc4cccnc43)CC2)cc1", "REPORTED_VALUE": "101 µL/min/mg"}
{"SUBSTANCE_SMILES": "NC(=O)N(O)CCC#Cc1ccc(OCCCCN2CCN(C(c3ccc(F)cc3)c3ccc(F)cc3)CC2)cc1", "REPORTED_VALUE": "138 µL/min/mg"}
